# credit: patent US20260098080A1

# target: T1, human MASP-2cf CCP1-CCP2-SP (human, UniProt O00187 298-686, limits assumed)
# T1 construct: domain: CCP1-CCP2-SP; also called human MASP-2 catalytic fragment
# T1 sequence (O00187 298-686 limits assumed): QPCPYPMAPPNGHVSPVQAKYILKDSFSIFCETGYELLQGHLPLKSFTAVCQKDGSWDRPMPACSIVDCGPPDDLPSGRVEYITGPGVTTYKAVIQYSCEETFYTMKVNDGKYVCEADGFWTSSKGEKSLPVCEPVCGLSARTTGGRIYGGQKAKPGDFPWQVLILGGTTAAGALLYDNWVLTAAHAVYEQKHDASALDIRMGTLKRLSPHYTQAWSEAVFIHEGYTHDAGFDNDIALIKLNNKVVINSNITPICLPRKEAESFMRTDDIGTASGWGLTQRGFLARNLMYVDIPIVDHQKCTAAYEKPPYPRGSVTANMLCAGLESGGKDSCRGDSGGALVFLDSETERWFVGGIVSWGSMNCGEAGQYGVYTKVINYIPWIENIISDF
# protocol notes: SPR, target immobilised
Where no end group is shown, it is not given here.

# binder, unit of measurement, koff
records = [
    ("EVO22b (designed binder, not fully specified; cysteine pairing not given here, Modified TFPI-D2 Kunitz domain; made as m1) KPDFCFLENDPGPCRALARRYFYNNQTKQCERFYYGGCLGNMNNFVTLEECKNICEDG", "s⁻¹", 0.00026),
    ("EVO221 (designed binder, not fully specified; cysteine pairing not given here, Modified TFPI-D2 Kunitz domain; made as m1) KPDFCFLENDPGVCRAAAVRYFYNNQTKQCERFYYGGCLGNMNNFVTLEECKNICEDG", "s⁻¹", 0.000131),
]
